Hello, the source for this data is patent US8921380B2, in case you need it.

Catalogue of compounds with associated pIC50
- Tgt: Human CB1 receptor (Homo sapiens)
- Construct: host or cells: CHO (hCB1/CHO), membrane fraction
- Experiment Notes: Human CB1 receptor binding assay ([3H]-CP55940, hCB1/CHO membrane fraction)
- Condition Parameters: Experiment 2; same method as Experiment 1
pIC50: −log10 of the molar value.

Please review the entries below; each comes with its answer.
NC(=O)C1(NC(=O)c2cnn3c(-c4ccc(Cl)cc4)c(-c4ccccc4Cl)cnc23)CCS(=O)(=O)CC1 : 7.00 to 8.00
Cc1nn2c(-c3ccc(Cl)cc3)c(-c3ccccc3Cl)cnc2c1C(=O)NC1(C(N)=O)CCS(=O)(=O)CC1 : 7.00 to 8.00

Entry CC1(NC(=O)c2c(S(N)(=O)=O)nn3c(-c4ccc(Cl)cc4)c(-c4ccccc4Cl)cnc23)CC1 — recorded pIC50 = > 8.00

Entry CNC(=O)c1nn2c(-c3ccc(C(F)(F)F)cc3)c(-c3ccccc3Cl)cnc2c1C(=O)NC1(C)CCS(=O)(=O)CC1 — recorded pIC50 = > 8.00

Entry N#Cc1ccccc1-c1cnc2c(C(=O)NC3(C(N)=O)CCS(=O)(=O)CC3)cnn2c1-c1ccc(C(F)(F)F)cc1 — recorded pIC50 = 7.00 to 8.00

Entry CN(C)NC(=O)c1c(S(N)(=O)=O)nn2c(-c3ccc(C(F)F)cc3)c(-c3ccccc3Cl)cnc12 — recorded pIC50 = 7.00 to 8.00

Entry CC1(NC(=O)c2c(OCCO)nn3c(-c4ccc(Cl)cc4)c(-c4ccccc4Cl)cnc23)CCS(=O)(=O)C1 (centres unmarked) — recorded pIC50 = > 8.00

Entry CC1(NC(=O)c2c(CO)nn3c(-c4ccc(C(F)(F)F)cc4)c(-c4ccccc4Cl)cnc23)CCS(=O)(=O)CC1 — recorded pIC50 = > 8.00

###

- Tgt: Human CB1 receptor (Homo sapiens, UniProt P21554)
- Construct: host or cells: CHO (hCB1/CHO), membrane fraction
- Sequence (P21554 whole entry): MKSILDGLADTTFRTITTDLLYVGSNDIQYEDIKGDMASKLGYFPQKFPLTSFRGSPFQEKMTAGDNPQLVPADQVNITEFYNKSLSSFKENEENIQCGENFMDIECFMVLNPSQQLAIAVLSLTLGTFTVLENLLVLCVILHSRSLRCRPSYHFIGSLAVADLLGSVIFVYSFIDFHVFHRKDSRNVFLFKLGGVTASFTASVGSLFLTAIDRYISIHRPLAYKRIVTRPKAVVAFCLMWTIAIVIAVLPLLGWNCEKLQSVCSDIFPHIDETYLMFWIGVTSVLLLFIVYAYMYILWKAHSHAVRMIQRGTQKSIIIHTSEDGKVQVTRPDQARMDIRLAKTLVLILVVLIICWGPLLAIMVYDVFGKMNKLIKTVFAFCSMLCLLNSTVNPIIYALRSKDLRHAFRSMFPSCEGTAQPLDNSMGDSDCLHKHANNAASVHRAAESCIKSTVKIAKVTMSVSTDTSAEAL
- Experiment Notes: Human CB1 receptor binding assay ([3H]-CP55940, hCB1/CHO membrane fraction)
- Condition Parameters: Experiment 1; inhibition of [3H]-CP55940 binding to hCB1/CHO membranes
pIC50: −log10 of the molar value.
Readout Label: pIC50

Please review the entries below; each comes with its answer.
CNC(=O)C1(NC(=O)c2cnn3c(-c4ccc(Cl)cc4)c(-c4ccccc4Cl)cnc23)CCCCC1 : 7.00 to 8.00
N#Cc1ccccc1-c1cnc2c(C(=O)NC3CCCC3)c(S(N)(=O)=O)nn2c1-c1ccc(Cl)cc1 : > 8.00
Cc1nn2c(-c3ccc(C(F)(F)F)cc3)c(-c3ccccc3Cl)cnc2c1C(=O)NC1(C#N)CCCCC1 : 7.00 to 8.00
NS(=O)(=O)c1nn2c(-c3ccc(Cl)cc3)c(-c3ccccc3Cl)cnc2c1C(=O)NN1CCCC1 : > 8.00
CN(NC(=O)c1c(S(N)(=O)=O)nn2c(-c3ccc(Cl)cc3)c(-c3ccccc3Cl)cnc12)c1ccccn1 : > 8.00
CC1(NC(=O)c2cnn3c(-c4ccc(Cl)cc4)c(-c4ccccc4Cl)cnc23)CCCCC1 : 7.00 to 8.00

Observed pIC50 on Human CB1 receptor (Homo sapiens, UniProt P21554), entry CNS(=O)(=O)c1nn2c(-c3ccc(Cl)cc3)c(-c3ccccc3Cl)cnc2c1C(=O)N[C@@H]1CCS(=O)(=O)C1 , equals 7.00 to 8.00
